# subject of test: T1, Cav3.1 (Homo sapiens, UniProt O43497)
# T1 construct: expressed in transfected cells; host or cells: HEK-293, stably transfected
# procedure text: Whole-cell patch clamp of Cav3.1 dependent LVA calcium current in HEK-293/Cav3.1 cells transiently transfected with γ subunits (Example 1)
# Type: cell-based
# condition details: Table 2
# Activation V 0.5 per record follows

Sample answers from the record:
{"molecule": "γ6S: rat calcium channel γ6 subunit, short isoform (AF361344), SEQ ID NO:49 (protein, listed as Rattus norvegicus) MMWSNFFMQEEDRRRTAVGRRRAQEQQNLGLTPEREGKIKLGLLVAIVGATLAVLAVGTEFWVELNTYKTNGSAVCEAAHLGLWKVCIKRLWQADVPAGRETCGPAELPGEANCTYFKFFTTGENAHIFQRTTKKGLLLFVSLEVFRHSVRALLQGVNPETPPAPRLAYEYSWSLGCGVGAGLILLLGGVCFLLLTLPSWPWRSLCPKRGGPTA", "measurement name": "Activation V 0.5", "result": "−36.3 ± 6.2 (n = 4) mV"}
{"molecule": "γ7: rat calcium channel γ7 subunit (AF361345), SEQ ID NO:50 (protein, listed as Rattus norvegicus) MSHCSSRALTLLSSVFGACGLLLVGIAVSTDYWLYMEEGTVLPQNQTTEVKMALHAGLWRVCFFAGREKGRCVASEYFLEPEINLVTENTENILKTVRTATPFPMVSLFLVFTAFVISNIGHIRPQRTILAFVSGIFFILSGLSLVVGLVLYISSINDEVMNRPSSSEQYFHYRYGWSFAFAASSFLLKEGAGVMSVYLFTKRYAEEEMYRPHPAFYRPRLSDCSDYSGQFLQPEAWRRGRSPSDISSDVSIQMTQNYPPAIKYPDHLHISTSPC", "measurement name": "Activation V 0.5", "result": "−28.1 ± 1.2 (n = 11) mV"}

Check the records and state Activation V 0.5 for γ4: rat calcium channel γ4 subunit (AF361341), SEQ ID NO:47 (protein, listed as Rattus norvegicus) MVRCDRGLQMLLTTAGAFAAFSLMAIAIGTDYWLYSSAHICNGTNLTMDDGPPPRRARGDLTHSGLWRVCCIEGIYKGHCFRINHFPEDNDYDHDSSEYLLRIVRASSVFPILSTILLLLGGLCIGAGRIYSRKNNIVLSAGILFVAAGLSNIIGIIVYISSNTGDPSDKRDEDKKNHYNYGWSFYFGALSFIVAETVGVLAVNIYIEKNKELRFKTKREFLKASSSSPYSRMPSYRYRRRRSRSSSRSTEASPSRDASPVGLKITGAIPMGELSMYTLSREPLKVTTAASYSPDQDAGFLQMHDFFQQDLKEGFHVSMLNRRTTPV
−37.3 ± 0.9 (n = 8) mV
